Data provenance: patent US10889564B2

EXPERIMENTAL_TARGET: human dihydroorotate dehydrogenase (DHODH) (Homo sapiens (Human), UniProt Q02127)
Sequence (Q02127 29-395): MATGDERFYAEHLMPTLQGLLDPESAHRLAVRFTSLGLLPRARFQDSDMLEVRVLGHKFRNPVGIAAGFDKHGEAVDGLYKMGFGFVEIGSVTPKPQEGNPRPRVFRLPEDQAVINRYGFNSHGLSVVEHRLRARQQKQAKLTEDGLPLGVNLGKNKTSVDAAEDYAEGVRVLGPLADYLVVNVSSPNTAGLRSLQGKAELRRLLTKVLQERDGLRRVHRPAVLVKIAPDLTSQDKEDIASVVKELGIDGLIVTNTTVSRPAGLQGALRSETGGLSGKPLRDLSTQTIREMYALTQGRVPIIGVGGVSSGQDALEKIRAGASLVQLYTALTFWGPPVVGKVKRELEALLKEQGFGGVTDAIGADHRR
EXPERIMENT_DESCRIPTION: DHODH enzyme assay, Assay B (DCIP absorbance, 384 well)
Assay type: biochemical
EXPERIMENTAL_CONDITIONS: 4 nM recombinant human DHODH
Could you please mark t for values of IC50 below 0.1 µM and f for values at or above it?

Observe how each entry below is paired with its result.
[
  {
    "COMPOUND_STRUCTURE_STRING": "Cc1cccc(C(=O)N[C@@H]2CCCc3c2cnn3-c2ccccc2C)n1",
    "EXPERIMENTAL_TARGET": "human dihydroorotate dehydrogenase (DHODH) (Homo sapiens (Human), UniProt Q02127)",
    "DISCRETE_LABEL": "f"
  },
  {
    "COMPOUND_STRUCTURE_STRING": "O=C(N[C@@H]1CCCc2c1cnn2-c1ccccc1F)c1onc2c1CCCC2",
    "EXPERIMENTAL_TARGET": "human dihydroorotate dehydrogenase (DHODH) (Homo sapiens (Human), UniProt Q02127)",
    "DISCRETE_LABEL": "t"
  },
  {
    "COMPOUND_STRUCTURE_STRING": "Cc1ccccc1-n1ncc2c1CCC[C@H]2NC(=O)c1cccnc1O",
    "EXPERIMENTAL_TARGET": "human dihydroorotate dehydrogenase (DHODH) (Homo sapiens (Human), UniProt Q02127)",
    "DISCRETE_LABEL": "f"
  },
  {
    "COMPOUND_STRUCTURE_STRING": "Cc1ccccc1-n1ncc2c1CCC[C@H]2NC(=O)c1sccc1C",
    "EXPERIMENTAL_TARGET": "human dihydroorotate dehydrogenase (DHODH) (Homo sapiens (Human), UniProt Q02127)",
    "DISCRETE_LABEL": "f"
  },
  {
    "COMPOUND_STRUCTURE_STRING": "O=C(N[C@@H]1CCCc2c1cnn2-c1ccccc1F)c1nc2ccccc2o1",
    "EXPERIMENTAL_TARGET": "human dihydroorotate dehydrogenase (DHODH) (Homo sapiens (Human), UniProt Q02127)",
    "DISCRETE_LABEL": "t"
  },
  {
    "COMPOUND_STRUCTURE_STRING": "O=C(N[C@@H]1CCCc2c1cnn2-c1ccccc1F)c1ncn2c1CCCC2",
    "EXPERIMENTAL_TARGET": "human dihydroorotate dehydrogenase (DHODH) (Homo sapiens (Human), UniProt Q02127)",
    "DISCRETE_LABEL": "t"
  }
]

API: query returns whether the compound falls strictly under 0.1 µM in IC50. Query: `O=C(N[C@@H]1CCCc2c1cnn2-c1ccccc1F)c1cc2ccccc2[nH]1`
f

Hi there! Is IC50 for `Cc1ccccc1-n1ncc2c1CCC[C@H]2NC(=O)c1cc2ccccc2o1` below 0.1 µM, do you know?
f

For this compound, is IC50 lower than 0.1 µM? `O=C(N[C@@H]1CCCc2c1cnn2-c1ccccc1F)c1ccc(C(F)(F)F)cn1`
f

* * *

EXPERIMENTAL_TARGET: human dihydroorotate dehydrogenase (DHODH) (Homo sapiens (Human))
EXPERIMENT_DESCRIPTION: DHODH enzyme assay, Assay A (DCIP absorbance)
Type: biochemical
EXPERIMENTAL_CONDITIONS: 6 nM recombinant human DHODH
PROPERTY_LABEL: log10 IC50 (log10 of the value in µM)
Lab note - IC50 converted to log10 from values in µM.

[
  {
    "COMPOUND": "CSc1nc(C(=O)NC2CCCc3c2cnn3-c2ccc(F)cc2F)cs1 (centres unmarked) [Example 11]",
    "log10 IC50": 0.91
  }
]

Please supply log10 IC50 for each of the following items, keeping them in order.
1. O=C(NC1CCCc2c1cnn2-c1ccccc1F)c1onc2c1CCCC2 (centres unmarked) [Example 8]
2. O=C(NC1CCCc2c1cnn2-c1ccccc1F)c1cscn1 (centres unmarked) [Example 4]
3. Cc1cc(C(=O)NC2CCCc3c2cnn3-c2ccc(C)c(C)c2)no1 (centres unmarked) [Example 6]
4. CCc1cc(C(=O)NC2CCCc3c2cnn3-c2ccc(F)cc2F)no1 (centres unmarked) [Example 10]
5. O=C(NC1CCCc2c1cnn2-c1ccc(F)cc1F)c1onc2c1CCCC2 (centres unmarked) [Example 5]

1. -1.49
2. 0.05
3. 0.77
4. 0.39
5. -0.54

* * *

EXPERIMENTAL_TARGET: human dihydroorotate dehydrogenase (DHODH) (Homo sapiens (Human))
EXPERIMENT_DESCRIPTION: DHODH enzyme assay, Assay B (DCIP absorbance, 384 well)
Format: biochemical
EXPERIMENTAL_CONDITIONS: 4 nM recombinant human DHODH
# note: boundary value 0.4 µM maps to Not fulfilled; IC50 below it maps to Fulfilled

Study these solved cases before continuing.
[
  {
    "COMPOUND": "COc1cc(C(=O)N[C@@H]2CCCc3c2cnn3-c2ccccc2F)nc2ccccc12",
    "DISCRETE_LABEL": "Not fulfilled"
  },
  {
    "COMPOUND": "O=C(N[C@@H]1CCCc2c1cnn2-c1cccc(C(=O)N2CCOCC2)c1)c1noc2c1CCCC2",
    "DISCRETE_LABEL": "Fulfilled"
  },
  {
    "COMPOUND": "Cc1ccccc1-n1ncc2c1CCC[C@H]2NC(=O)c1oc2ccccc2c1C",
    "DISCRETE_LABEL": "Not fulfilled"
  }
]

Hi there! Is IC50 for `CC(C)OC(=O)c1cccc(-n2ncc3c2CCC[C@H]3NC(=O)c2noc3c2CCCC3)c1` below 0.4 µM, do you know?
Fulfilled

Please let me know if Cc1ccnc(C(=O)NC2CCCc3c2cnn3-c2ccccc2)c1 (stereo not shown) shows IC50 below 0.4 µM.
Not fulfilled

* * *

EXPERIMENTAL_TARGET: human dihydroorotate dehydrogenase (DHODH) (Homo sapiens (Human), UniProt Q02127)
EXPERIMENT_DESCRIPTION: DHODH enzyme assay, Assay B (DCIP absorbance, 384 well)
Assay type: biochemical
EXPERIMENTAL_CONDITIONS: 4 nM recombinant human DHODH
Doc: threshold 0.1 µM (exclusive). Items with IC50 beneath it return TRUE; others return FALSE.

[
  {
    "COMPOUND": "Cc1ccccc1-n1ncc2c1CCC[C@H]2NC(=O)c1ccccn1 [Example 20]",
    "EXPERIMENTAL_TARGET": "human dihydroorotate dehydrogenase (DHODH) (Homo sapiens (Human), UniProt Q02127)",
    "DISCRETE_LABEL": "FALSE"
  },
  {
    "COMPOUND": "Cc1cnc(C(=O)N[C@@H]2CCCc3c2cnn3-c2ccccc2F)cn1 (single isomer, unassigned) [Example 15]",
    "EXPERIMENTAL_TARGET": "human dihydroorotate dehydrogenase (DHODH) (Homo sapiens (Human), UniProt Q02127)",
    "DISCRETE_LABEL": "FALSE"
  },
  {
    "COMPOUND": "O=C(N[C@@H]1CCCc2c1cnn2-c1ccccc1F)c1noc2ccccc12 [Example 28]",
    "EXPERIMENTAL_TARGET": "human dihydroorotate dehydrogenase (DHODH) (Homo sapiens (Human), UniProt Q02127)",
    "DISCRETE_LABEL": "TRUE"
  },
  {
    "COMPOUND": "Cc1ccc(C(=O)N[C@@H]2CCCc3c2cnn3-c2ccccc2C)nc1 [Example 24]",
    "EXPERIMENTAL_TARGET": "human dihydroorotate dehydrogenase (DHODH) (Homo sapiens (Human), UniProt Q02127)",
    "DISCRETE_LABEL": "TRUE"
  }
]

--- query ---
Given the entry Cc1ccccc1-n1ncc2c1CCC[C@H]2NC(=O)c1ncccc1C [Example 26] , would its reported IC50 be below 0.1 µM?
TRUE
